Field: IC50. Provide a value for each of the compounds that follow.
- targetEntity: Ros1 enzyme (Homo sapiens)
- Construct: 0.5 μg/ml Ros1 enzyme
- Sequence (P08922 28-2347): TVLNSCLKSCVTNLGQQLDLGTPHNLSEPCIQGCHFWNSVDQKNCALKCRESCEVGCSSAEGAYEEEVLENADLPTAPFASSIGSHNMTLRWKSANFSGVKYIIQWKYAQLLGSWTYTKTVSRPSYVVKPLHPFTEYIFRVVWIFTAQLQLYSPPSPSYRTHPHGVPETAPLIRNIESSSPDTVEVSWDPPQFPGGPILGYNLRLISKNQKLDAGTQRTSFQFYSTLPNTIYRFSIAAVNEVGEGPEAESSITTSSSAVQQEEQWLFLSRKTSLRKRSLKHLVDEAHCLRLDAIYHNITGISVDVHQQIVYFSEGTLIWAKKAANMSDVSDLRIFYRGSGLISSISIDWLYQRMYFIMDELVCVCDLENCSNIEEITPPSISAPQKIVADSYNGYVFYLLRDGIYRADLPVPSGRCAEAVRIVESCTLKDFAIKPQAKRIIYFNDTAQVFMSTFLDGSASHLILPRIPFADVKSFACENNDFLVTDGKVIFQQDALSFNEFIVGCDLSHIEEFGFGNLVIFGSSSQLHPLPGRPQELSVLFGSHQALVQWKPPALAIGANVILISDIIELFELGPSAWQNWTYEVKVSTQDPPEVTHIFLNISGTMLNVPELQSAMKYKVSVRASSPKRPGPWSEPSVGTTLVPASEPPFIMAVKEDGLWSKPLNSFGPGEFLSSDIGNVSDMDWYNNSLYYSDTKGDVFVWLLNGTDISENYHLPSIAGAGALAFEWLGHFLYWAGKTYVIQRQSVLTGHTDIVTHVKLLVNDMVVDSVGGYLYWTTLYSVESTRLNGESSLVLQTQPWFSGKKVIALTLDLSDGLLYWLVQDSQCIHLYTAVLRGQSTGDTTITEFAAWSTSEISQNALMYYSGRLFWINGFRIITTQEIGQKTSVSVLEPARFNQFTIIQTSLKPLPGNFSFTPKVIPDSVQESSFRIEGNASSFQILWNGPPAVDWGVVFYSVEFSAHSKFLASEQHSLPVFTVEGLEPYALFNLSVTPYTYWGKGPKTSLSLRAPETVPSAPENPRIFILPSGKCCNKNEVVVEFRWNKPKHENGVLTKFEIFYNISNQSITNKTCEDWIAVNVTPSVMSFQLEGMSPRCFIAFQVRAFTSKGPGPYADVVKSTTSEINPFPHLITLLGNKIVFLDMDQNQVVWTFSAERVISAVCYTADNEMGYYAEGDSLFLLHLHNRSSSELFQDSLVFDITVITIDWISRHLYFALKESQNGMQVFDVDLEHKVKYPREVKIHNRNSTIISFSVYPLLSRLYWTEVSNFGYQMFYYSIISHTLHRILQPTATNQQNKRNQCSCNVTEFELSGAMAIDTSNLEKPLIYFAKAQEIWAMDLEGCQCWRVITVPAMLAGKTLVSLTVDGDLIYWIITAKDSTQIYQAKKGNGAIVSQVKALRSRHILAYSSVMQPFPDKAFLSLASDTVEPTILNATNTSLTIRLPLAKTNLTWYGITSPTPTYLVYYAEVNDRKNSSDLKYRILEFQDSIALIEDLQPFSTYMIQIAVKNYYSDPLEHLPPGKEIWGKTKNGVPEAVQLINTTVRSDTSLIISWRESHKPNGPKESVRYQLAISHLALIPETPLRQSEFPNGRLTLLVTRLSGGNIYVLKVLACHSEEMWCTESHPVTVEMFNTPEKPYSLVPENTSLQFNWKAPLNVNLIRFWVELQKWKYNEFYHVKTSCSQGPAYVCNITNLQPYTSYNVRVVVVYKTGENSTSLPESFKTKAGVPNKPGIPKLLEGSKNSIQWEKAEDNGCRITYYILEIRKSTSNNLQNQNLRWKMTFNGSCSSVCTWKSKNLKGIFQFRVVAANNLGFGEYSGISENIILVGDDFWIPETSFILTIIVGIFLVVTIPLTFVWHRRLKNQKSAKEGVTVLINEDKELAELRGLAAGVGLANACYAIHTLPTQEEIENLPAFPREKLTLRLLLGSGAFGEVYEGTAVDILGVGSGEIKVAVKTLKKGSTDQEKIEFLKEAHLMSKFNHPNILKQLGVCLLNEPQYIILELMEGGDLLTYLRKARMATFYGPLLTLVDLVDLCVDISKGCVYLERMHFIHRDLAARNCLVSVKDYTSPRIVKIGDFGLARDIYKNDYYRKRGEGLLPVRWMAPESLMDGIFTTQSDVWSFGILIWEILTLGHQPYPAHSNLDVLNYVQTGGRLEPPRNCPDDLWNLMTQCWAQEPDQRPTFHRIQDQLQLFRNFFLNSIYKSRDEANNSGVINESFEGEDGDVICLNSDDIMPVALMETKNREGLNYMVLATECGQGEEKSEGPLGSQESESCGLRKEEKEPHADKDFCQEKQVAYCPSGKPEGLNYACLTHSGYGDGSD
- methodDescription: Ros1 enzymatic assay
- Format: biochemical
- statedConditions: Ros1 enzymatic assay; read-out: ROS1 pIC50 (converted)
- Method: Compounds were spotted onto white 384-well Proxiplate plus plates (Perkin Elmer) to which 5 μl of enzyme mix (0.5 μg/ml Ros1 enzyme, 50 mM Tris-HCl pH7.5, 1 mM EGTA, 10 mM MgCl2, 0.01% Tween-20) and 5 μl of substrate mix (6 μg/ml IRS-Tide [American Peptide Company], 20 μM ATP, 13.33 μCi/ml ATP (adenosine 5′-triphosphate) P^33, 50 mM Tris-HCl pH7.5, 1 mM EGTA (ethylene glycol-bis(2-aminoethylether)-N,N,N′,N′-tetraacetic acid), 10 mM MgCl2, 0.01% Tween-20) were added. […]
Please make sure the unit comes right after the number.

Here's what some known entries look like.
{"compound": "CC(C)c1ccc(COc2ccc(-c3c(-c4ccncc4)nn4c3C(=O)N(C)CC4)cn2)cc1", "targetEntity": "Ros1 enzyme (Homo sapiens)", "IC50": "31.6 nM"}
{"compound": "O=C1NC2(CC2)Cn2nc(-c3ccncc3)c(-c3ccc(OCc4ccc(C5CC5)cc4)cc3)c21", "targetEntity": "Ros1 enzyme (Homo sapiens)", "IC50": "25.1 nM"}
{"compound": "CC(O)CN1CCn2nc(-c3ccncc3)c(-c3ccc(OCc4ccc(C(C)C)cc4)cc3)c2C1=O (stereo not drawn)", "targetEntity": "Ros1 enzyme (Homo sapiens)", "IC50": "50.1 nM"}
{"compound": "CC(C)NC(=O)CN1CCn2nc(-c3ccncc3)c(-c3ccc(OCc4ccc(C(C)C)cc4)cc3)c2C1", "targetEntity": "Ros1 enzyme (Homo sapiens)", "IC50": "200 nM"}
{"compound": "N#Cc1cccc(COc2ccc(-c3c(-c4ccncc4)nn4c3C(=O)NCC4)cc2)c1", "targetEntity": "Ros1 enzyme (Homo sapiens)", "IC50": "2000 nM"}

Please state, for each entry, its recorded IC50.
1. CC(C)c1ccc(C2Oc3ccc(-c4c(-c5ccncc5)nn5c4C(=O)NCC5)cc3NC2=O)cc1 (stereo not drawn)
2. CC(C)c1ccc(C(CO)Oc2ccc(-c3c(-c4ccncc4)nn4c3C(=O)NCC4)cc2)cc1 (stereo not drawn)
3. CNCCc1cc(COc2ccc(-c3c(-c4ccncc4)nn4c3C(=O)NCC4)cc2)ccc1C(C)C
4. c1cc(-c2nn3c(c2-c2ccc(OCc4ccc(C5CC5)cc4)cc2)CNCC3)ccn1
5. O=C1NCCn2nc(-c3ccncn3)c(-c3ccc(OCc4ccc(C5CC5)cc4)cc3)c21
6. CC(C)c1ccc(COc2ccc(-c3c(-c4ccncc4)nn4c3C(=O)NCC4)cn2)cc1
7. CC(C)c1ccc(COc2ccc(-c3c(-c4ccncn4)nn4c3CNCC4)cc2)cc1

["794 nM", "2000 nM", "20 nM", "631 nM", "63.1 nM", "25.1 nM", "1260 nM"]

Take each entry in turn and give its IC50.
1. O=C1c2c(-c3ccc(OCc4ccc(OC(F)(F)F)cc4)cc3F)c(-c3ccncc3)nn2CCN1CCO
2. COCCc1cc(COc2ccc(-c3c(-c4ccncc4)nn4c3C(=O)NCC4)cc2)ccc1C(C)C
3. CC(C)c1ccc(COc2ccc(-c3c(-c4ccncc4)nn4c3C(=O)N(C(C)CO)CC4)cc2)cc1 (single isomer, unassigned) [Compound 38]

["39.8 nM", "25.1 nM", "12.6 nM"]

Numbers sourced from patent US10280170B2.
